# tested-target: Neu5Ac(a2-3)Gal(b1-3)GlcNAc6S
# method-summary: glycan array binding signal (z-score within array); higher = stronger binding
# run-conditions: glycan notation: IUPAC condensed, linker removed
Many of the other results were omitted from the sample, so the strongest signals are more common in it than they were.
property: glycan array binding signal (z-score)
Number only, please.

Which glycan array binding signal (z-score) is listed for Gal-9-hFc (Mus musculus), O08573-2 (protein) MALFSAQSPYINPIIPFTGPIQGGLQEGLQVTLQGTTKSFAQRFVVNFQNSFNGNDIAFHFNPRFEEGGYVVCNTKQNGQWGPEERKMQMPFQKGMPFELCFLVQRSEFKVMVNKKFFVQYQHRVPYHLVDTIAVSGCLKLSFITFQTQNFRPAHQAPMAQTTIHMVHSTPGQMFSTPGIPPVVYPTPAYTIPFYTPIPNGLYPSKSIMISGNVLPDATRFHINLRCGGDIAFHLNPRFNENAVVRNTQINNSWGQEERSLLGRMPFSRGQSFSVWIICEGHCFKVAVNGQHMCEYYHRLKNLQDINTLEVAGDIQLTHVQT ?
-0.023

GET /values?readout=glycan array binding signal (z-score)&item= MLTim-4 (Mus musculus), Q6U7R4 (protein) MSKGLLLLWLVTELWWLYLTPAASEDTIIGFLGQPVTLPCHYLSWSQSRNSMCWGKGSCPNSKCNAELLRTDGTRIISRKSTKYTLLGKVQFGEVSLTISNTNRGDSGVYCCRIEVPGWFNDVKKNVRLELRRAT
2.45

Would you kindly share the measured glycan array binding signal (z-score) for Mcg Light Chain Dimer (Homo sapiens), Q6PIK1 (protein) MAGFPLLLTLLTHCAGSWGQSLLTQPPSVSGTPGQRVTISCSGSSSNIGINYVYWYQQIPGTAPKLLISTNDQRPSGVPDRFSGSKSGTSASLAIGGLRSEDEAHYYCAAWDDSMSGPGYAFGTGTKVTVLRQPKANPTVTLFPPSSEELQANKATLVCLISDFYPGAVTVAWKADGSPVKAGVETTKPSKQSNNKYAASSYLSLTPEQWKSHRSYSCQVTHEGSTVEKTVAPTECS ?
1.73
